assay: chemical genetic growth profiling, strain panel (AID 1159580);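 also: tested at 20 µM; growth read once vehicle control cultures reached saturation at 30 °C; 1 = growth at the plate median or of vehicle wells; lower values mean less growth of the strain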; details: S. cerevisiae deletion strains, growth OD, locus YDR477W, strain SNF1, hits give low values
Screen size: about 5,500 compounds; about 2,000 (36%) were called active. Roughly 18% stayed inconclusive and do not appear here. Some of the results follow.
normalized growth reference
The response must contain the number and no unit.

As a guide, the following entries are already answered.
| compound.string | measured.endpoint | reported.result |
| --- | --- | --- |
| N#CCC(=O)c1cccc(CSc2ccccc2Cl)c1 | normalized growth | 0.417 |
| CC(C)CSc1nnc(CSCc2nc(-c3ccc(Cl)cc3)cs2)n1C | normalized growth | 0.965 |

Please find the next compound below.
Query :: State the recorded normalized growth for this entry: CCCc1cnc(N2CCN(CC(=O)N(c3ccccc3)C3CCCCC3)CC2)nc1
Result :: 0.999

Value source: PubChem BioAssay AID1159580
